molecular target: T1, human urokinase-type plasminogen activator receptor (uPAR, CD87), cell-bound (human, UniProt Q03405 23-305); test: FACS, B300.19 cells expressing human uPAR, anti-human gamma Cy5
T1 construct: whole, on cells; On B300.19 or L929 transfectants (full length cDNA), or native on U937 and PC-3 cells
T1 sequence (Q03405 23-305): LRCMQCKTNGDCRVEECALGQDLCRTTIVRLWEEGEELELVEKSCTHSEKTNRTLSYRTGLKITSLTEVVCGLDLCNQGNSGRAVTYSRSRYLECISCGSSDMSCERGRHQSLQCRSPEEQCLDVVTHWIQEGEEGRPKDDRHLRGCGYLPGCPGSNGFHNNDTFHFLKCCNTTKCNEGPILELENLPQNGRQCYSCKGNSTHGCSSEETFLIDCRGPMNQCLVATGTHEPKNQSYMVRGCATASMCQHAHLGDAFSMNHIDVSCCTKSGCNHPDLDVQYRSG
measured endpoint: gCy5 Geo Mean Pos Cells
// response body must contain only the number

binder: anti-uPAR monoclonal antibody 1.4.2 (antibody, V domains shown) VH: EVQLVESGGGLVQPGGSLRLSCAASGFTFSSYDMHWVRQATGKGLEWVSAIGTAGDTYYPGSVKGRFTISRENAKNSLYLQMNSLRAGDTAVYYCAREGDYSNYFTMVRGVTYGMDVWGQGTTVTVSS VL: DIQLTQSPSSLCASVGDRITITCRASQGISKYLAWFQQKPGKAPKSLIYGASSLQSGVPAKFSGSGSGTDFTLTISSLQPEDFATYYCQQYNSYPLTFGGGTKVEIK
gCy5 Geo Mean Pos Cells: 419

binder: anti-uPAR monoclonal antibody 1.41.1 (antibody, V domains shown) VH: QVQLVESGGGVVQPGRSLRLSCAAPGFTFSSYGMHWVRQAPGKGLEWVAVIWYDGSQKYYADSVKGRFTISRDNSKNTLYLQMNSLRAEDTAVYYCARGMTYYYYYGMDVWGQGTTVTVSS VL: EIVMTQSPAILSVSPGERATLSCRASQSVSSKLDWYQQKPGQAPRLLIYGASTRATGIPARFSGSGSGTEFTLTISSLQSEDFAVYYCQQYNNWPRTFGQGTKVEIK
gCy5 Geo Mean Pos Cells: 422

[ask] Any idea what gCy5 Geo Mean Pos Cells was measured for anti-uPAR monoclonal antibody 1.61.1 (antibody, V domains shown) VH: EVQLVESGGGLVQPGGSLRLSCAASGFTFSSYDMHWVRQATGKGLEWVSAIGTAGDTYYPGSVKGRFTISRENAKNSLYLQMNSLRAGDTAVYYCAREGDYSNYFTRVRGVTYGMDVWGQGTTVTVSS VL: DIQMTQSPSSLSASVGDRVTITCRASQGISKYLAWFQQKPGKAPKSLIYGASSLQSGVPSKFSGSGSGTDFTLTISSLQPEDFATYYCQQYNSYPLTFGGGTKVEIK ?
[reply] 559
